Reported IC50 values are given for each entry in this list.
Target: human GluN1/GluN2B NMDA receptors (Homo sapiens, UniProt Q05586+Q13224)
Sequence (Q13224 27-1484, other chains not shown): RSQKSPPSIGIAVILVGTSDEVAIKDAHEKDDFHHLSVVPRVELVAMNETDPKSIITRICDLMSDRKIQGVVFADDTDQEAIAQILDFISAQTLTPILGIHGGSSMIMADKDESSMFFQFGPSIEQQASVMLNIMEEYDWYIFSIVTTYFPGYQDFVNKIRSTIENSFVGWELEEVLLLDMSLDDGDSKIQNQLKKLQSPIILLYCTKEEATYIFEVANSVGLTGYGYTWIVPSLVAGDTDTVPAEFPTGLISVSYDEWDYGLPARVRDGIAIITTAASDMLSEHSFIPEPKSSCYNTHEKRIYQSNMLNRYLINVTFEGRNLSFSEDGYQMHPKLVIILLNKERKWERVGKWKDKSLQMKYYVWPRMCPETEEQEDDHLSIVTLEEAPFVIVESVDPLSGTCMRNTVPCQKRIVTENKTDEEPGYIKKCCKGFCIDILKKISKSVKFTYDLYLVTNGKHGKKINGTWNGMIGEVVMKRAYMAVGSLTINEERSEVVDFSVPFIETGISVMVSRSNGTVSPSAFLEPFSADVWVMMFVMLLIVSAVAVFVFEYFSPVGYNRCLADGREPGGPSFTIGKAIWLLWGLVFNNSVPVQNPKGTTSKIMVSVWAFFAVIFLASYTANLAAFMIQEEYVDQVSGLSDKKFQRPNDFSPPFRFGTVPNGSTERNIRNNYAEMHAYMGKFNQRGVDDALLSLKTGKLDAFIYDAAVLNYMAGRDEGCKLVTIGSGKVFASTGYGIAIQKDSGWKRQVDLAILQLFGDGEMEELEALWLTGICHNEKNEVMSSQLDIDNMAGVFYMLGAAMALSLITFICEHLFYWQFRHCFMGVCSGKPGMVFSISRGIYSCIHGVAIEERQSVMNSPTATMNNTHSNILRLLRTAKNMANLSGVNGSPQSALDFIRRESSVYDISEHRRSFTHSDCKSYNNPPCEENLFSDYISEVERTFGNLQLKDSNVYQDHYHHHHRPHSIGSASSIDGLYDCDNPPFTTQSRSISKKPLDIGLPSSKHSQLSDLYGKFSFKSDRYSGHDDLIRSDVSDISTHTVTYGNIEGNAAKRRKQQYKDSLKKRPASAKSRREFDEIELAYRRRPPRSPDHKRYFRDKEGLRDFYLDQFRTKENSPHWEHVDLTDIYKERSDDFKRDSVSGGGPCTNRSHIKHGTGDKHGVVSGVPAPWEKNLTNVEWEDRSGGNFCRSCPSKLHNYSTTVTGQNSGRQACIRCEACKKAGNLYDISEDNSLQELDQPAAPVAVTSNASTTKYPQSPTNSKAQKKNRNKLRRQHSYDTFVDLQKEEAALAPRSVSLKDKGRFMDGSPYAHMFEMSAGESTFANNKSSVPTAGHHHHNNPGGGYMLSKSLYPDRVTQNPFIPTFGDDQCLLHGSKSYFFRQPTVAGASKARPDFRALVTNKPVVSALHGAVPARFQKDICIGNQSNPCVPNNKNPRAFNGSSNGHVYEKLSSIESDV
Experiment: Calcium flux (FLIPR) assay on cloned human NR1/GluN2B ion channels expressed in mammalian cells, standard assay
Conditions: glutamate ~EC40 and 10 μM glycine, stable cell line with Tet-On induced expression
Procedure: Effects of Test Articles on Cloned Human NR1/GluN2B Ion Channels Expressed in Mammalian Cells NMDA receptors are ion channels that are highly permeable to Ca^2+ ions, rendering it possible to monitor NMDA receptor function using cell-based calcium flux assay. […] The time course of the changes in intracellular calcium is measured using a fluorescent dye and a FLIPR (Fluorometric Imaging Plate Reader) device. […]
Please respond with the number in nM and leave the unit unwritten.

>>> obs_value("O=C1NC[C@H](Cn2ncc3ncc(-c4ccc(F)c(C(F)F)c4)cc32)O1")
187
>>> obs_value("CC(C)C(=O)Cn1ncc2ncc(-c3ccccc3)cc21")
89
>>> obs_value("CC(C)C(=O)Cn1ncc2ncc(-c3cccc(F)c3F)cc21")
172

Could you now consider this next compound?
Enquiry: Give the value of IC50 reported for the following: O=C(Cn1ncc2ncc(-c3ccc(F)c(C(F)F)c3)cc21)c1cccnc1
Return: 90

###

Recorded IC50 values for a group of compounds are listed next.
Molecular target: human GluN1/GluN2B NMDA receptors (Homo sapiens, UniProt Q05586+Q13224)
Assay: Calcium flux (FLIPR) assay on cloned human NR1/GluN2B ion channels expressed in mammalian cells, standard assay
Conditions: glutamate ~EC40 and 10 μM glycine, stable cell line with Tet-On induced expression

In the examples that follow, each entry is paired with its recorded IC50.
>>> obs_value("O=C(Cn1ncc2ncc(-c3ccc(Cl)c(C(F)(F)F)c3)cc21)C1CC1")
"76 nM"
>>> obs_value("CN1C(=O)CCC1Cn1ncc2ncc(-c3ccc(F)c(OC(F)F)c3)cc21 (racemic)")
"> 3000 nM"
>>> obs_value("O=C(Cn1ncc2ncc(-c3cccc(C(F)(F)F)c3F)cc21)C1CC1")
"43 nM"
>>> obs_value("O=C(Cn1ncc2ncc(-c3ccc(F)c(C(F)F)c3)cc21)c1ccncc1")
"118 nM"
>>> obs_value("CC[S+]([O-])Cn1ncc2ncc(-c3cccc(C(F)(F)F)c3F)cc21 (racemic)")
"80 nM"

Enquiry: Answer briefly: IC50 recorded on human GluN1/GluN2B NMDA receptors (Homo sapiens, UniProt Q05586+Q13224) for CCN1C[C@H](Cn2ncc3ncc(-c4ccc(F)c(C(F)F)c4)cc32)OC1=O
Return: 204 nM

Enquiry: Recall the reported IC50 of O=C1OC(Cn2ncc3ncc(-c4ccc(F)c(C(F)F)c4)cc32)CN1C1CC1 (racemic) on human GluN1/GluN2B NMDA receptors (Homo sapiens, UniProt Q05586+Q13224) and write it down.
Return: 1630 nM

Enquiry: Tell me IC50 of CN1CC(Cn2ncc3ncc(-c4ccc(F)c(C(F)F)c4)cc32)CC1=O (racemic) when tested on human GluN1/GluN2B NMDA receptors (Homo sapiens, UniProt Q05586+Q13224).
Return: 89 nM

Enquiry: Answer with IC50 of CON=C(Cn1ncc2ncc(-c3cccc(C(F)(F)F)c3)cc21)C(C)C (mixture of isomers) measured for human GluN1/GluN2B NMDA receptors (Homo sapiens, UniProt Q05586+Q13224).
Return: 5250 nM

Enquiry: Look up and report IC50, with human GluN1/GluN2B NMDA receptors (Homo sapiens, UniProt Q05586+Q13224) as system, for CN1CC(Cn2ncc3ncc(-c4ccc(F)c(OC(F)F)c4)cc32)OC1=O (racemic)
Return: 165 nM

Enquiry: Lab note: human GluN1/GluN2B NMDA receptors (Homo sapiens, UniProt Q05586+Q13224) assay, enter IC50 for CC[S+]([O-])Cn1ncc2ncc(-c3ccc(F)c(C(F)F)c3)cc21 (single isomer, unassigned) [Example 84] here
Return: 29 nM

Enquiry: Give measured IC50 for CCC(=O)Cn1ncc2ncc(-c3cccc(C(F)(F)F)c3F)cc21 (human GluN1/GluN2B NMDA receptors (Homo sapiens, UniProt Q05586+Q13224)).
Return: 30 nM
